Target: xanthine oxidase (XO) (Bos taurus)
Sequence (P80457 whole entry): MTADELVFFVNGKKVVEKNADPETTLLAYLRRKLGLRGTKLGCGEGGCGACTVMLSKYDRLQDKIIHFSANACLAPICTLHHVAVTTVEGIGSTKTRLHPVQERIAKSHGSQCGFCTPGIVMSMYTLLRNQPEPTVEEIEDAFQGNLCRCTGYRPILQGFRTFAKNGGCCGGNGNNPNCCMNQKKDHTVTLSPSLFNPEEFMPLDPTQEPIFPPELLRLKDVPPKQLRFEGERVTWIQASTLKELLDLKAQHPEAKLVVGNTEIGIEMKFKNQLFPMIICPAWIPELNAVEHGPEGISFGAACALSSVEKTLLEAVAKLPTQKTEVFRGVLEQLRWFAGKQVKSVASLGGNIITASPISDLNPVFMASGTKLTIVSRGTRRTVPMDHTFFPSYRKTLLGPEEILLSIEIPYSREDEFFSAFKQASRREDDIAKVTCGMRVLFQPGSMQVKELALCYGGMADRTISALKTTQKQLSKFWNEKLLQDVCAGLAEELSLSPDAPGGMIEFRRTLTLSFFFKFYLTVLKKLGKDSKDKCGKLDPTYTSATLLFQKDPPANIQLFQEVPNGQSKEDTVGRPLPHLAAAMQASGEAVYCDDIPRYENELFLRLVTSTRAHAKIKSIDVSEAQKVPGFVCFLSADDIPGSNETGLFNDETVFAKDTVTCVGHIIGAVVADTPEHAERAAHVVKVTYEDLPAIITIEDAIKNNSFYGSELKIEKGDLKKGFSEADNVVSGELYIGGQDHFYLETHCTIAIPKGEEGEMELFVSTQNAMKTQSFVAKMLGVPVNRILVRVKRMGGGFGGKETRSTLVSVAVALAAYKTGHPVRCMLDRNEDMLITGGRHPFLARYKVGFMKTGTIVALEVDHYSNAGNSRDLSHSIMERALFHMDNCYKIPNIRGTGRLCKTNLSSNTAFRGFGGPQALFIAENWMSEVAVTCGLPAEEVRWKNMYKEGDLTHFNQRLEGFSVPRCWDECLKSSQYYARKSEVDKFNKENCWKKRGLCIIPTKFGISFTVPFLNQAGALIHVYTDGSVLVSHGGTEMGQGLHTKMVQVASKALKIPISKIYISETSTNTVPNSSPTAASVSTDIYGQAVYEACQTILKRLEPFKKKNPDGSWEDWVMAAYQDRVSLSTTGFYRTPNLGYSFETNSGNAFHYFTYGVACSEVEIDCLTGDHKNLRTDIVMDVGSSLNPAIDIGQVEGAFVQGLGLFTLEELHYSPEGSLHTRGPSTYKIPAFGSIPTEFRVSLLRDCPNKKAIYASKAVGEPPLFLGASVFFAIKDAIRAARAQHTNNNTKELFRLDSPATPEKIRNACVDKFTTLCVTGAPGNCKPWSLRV
READOUT LABEL: pIC50
Notebook: values listed as pIC50 are -log10 of the concentration (mol/L).

What value of measured pIC50 is listed for CC1=C(O)C(=O)C(C)(O)S1 (stereo not shown) [Thiacremonone] ?
3.61
